Measured inhibition accompanies every entry in the list below.
experiment: 384-well plate pilot, post-Golgi transport modulator project, inhibition of yeast transport mutant growth (AID 636); details: absorbance 615 nm, about 18 h, active compounds read high; also: test concentration not given here
All answers are understood in %, so give the number only.

Check out these entries, answers already filled in.
> print(dat)
                                    compound  reported.property  result.value
 1  CCCOC(=O)C1[C@H]2C(=O)N(CCCOC)C[C@]23C=C[C@H]1O3 (stereo partly drawn)         inhibition         -5.06
 2  COC(=O)c1ccc(C)c(NS(=O)(=O)c2ccc3c(c2)OCCO3)c1         inhibition          1.54
 3  CCOC(=O)c1nnn(CC(=O)Nc2cccc(F)c2)c1C(=O)OCC         inhibition         -1.04
 4     O=C(Nc1cccc(C(=O)N2CCOCC2)c1)c1cccnc1         inhibition         -6.18
 5        COC(=O)[C@H](C)NC(=O)NCc1ccc(F)cc1         inhibition         -2.21
 6   CN(C)CCCn1c(N)c(C#N)c2nc(C#N)c(C#N)nc21         inhibition         -1.89
 7  CC(=O)NS(=O)(=O)c1ccc(NC(=O)c2ccccc2F)cc1         inhibition             0
 8       CC(C)(C)C1=C[C@@H](CO)C[C@@H](CO)C1         inhibition         -4.13
 9  CC(C(=O)N1CCc2ccccc21)N1CCc2ccccc2C1 (stereo not drawn)         inhibition         -0.53
10    CCc1nc(N)c(C#N)c(-c2ccc(OC)c(OC)c2)c1C         inhibition         -6.93

QUERY: State its inhibition for this compound: CCCN1C2CCCC1CC(NC(=O)Nc1cccc(C(C)=O)c1)C2 (stereo not drawn)
RESULT: -1.95

QUERY: Could you please provide reported inhibition for O=C(CNS(=O)(=O)c1ccc(Br)s1)N1CCCC1 ? Thanks!
RESULT: -2.11

QUERY: Consider the compound COCCn1nnnc1CN(CCCN1CCOCC1)Cc1cc2c(C)ccc(C)c2[nH]c1=O . State its measured inhibition.
RESULT: 4.55

QUERY: Please indicate inhibition recorded for CCCCN(CC)S(=O)(=O)c1ccc2c(c1)CCCN2C(C)=O
RESULT: -2.37

QUERY: Input Cc1ccc2c(c1)CCCN2C(=O)Nc1ccc2c(c1)OCO2 , output reported inhibition.
RESULT: -6.27

QUERY: Return inhibition for the following compound: COc1ccc(S(=O)(=O)n2ccnc2)c2cccnc12
RESULT: -2.13

QUERY: # return recorded inhibition for input COc1cc(CNc2ccc(N3CCOCC3)c(C(=O)O)c2)ccc1OCC(N)=O
RESULT: -4.67

QUERY: Dear colleague, please send me the reported inhibition for CCc1nnc(NC(=O)c2ccc(COc3ccccc3)o2)s1 when you can.
RESULT: -3.97

QUERY: Entry Cc1nc2nc(SCC(=O)NCc3ccco3)nn2c(C)c1Cc1ccccc1 needs its inhibition filled in; supply it.
RESULT: -5.27

QUERY: Provide one value: measured inhibition of Cc1cc(C)nc(N2CCC(C(=O)NCc3cccc(C(F)(F)F)c3)CC2)n1
RESULT: -6.08

QUERY: Output measured inhibition for this item: CCN1CCN(C(=O)c2ccc3c(=O)n(CCC4=CCCCC4)c(=O)[nH]c3c2)CC1
RESULT: -8.29

QUERY: Read off the recorded inhibition for CCN1C(=O)CC(C(=O)Nc2ccc(F)cc2)SC1=Nc1ccc2c(c1)OCO2 (stereo not drawn)
RESULT: -2.53

QUERY: Fill in reported inhibition for this entry: COc1ccc(CCNc2nc(N3CCOCC3)nc(N3CCOCC3)n2)cc1OC
RESULT: 0.4
